Lab note: Kd readings collected with Bone morphogenetic protein receptor type-1A (Homo sapiens) for the following compounds.
Sequence (P36894 whole entry): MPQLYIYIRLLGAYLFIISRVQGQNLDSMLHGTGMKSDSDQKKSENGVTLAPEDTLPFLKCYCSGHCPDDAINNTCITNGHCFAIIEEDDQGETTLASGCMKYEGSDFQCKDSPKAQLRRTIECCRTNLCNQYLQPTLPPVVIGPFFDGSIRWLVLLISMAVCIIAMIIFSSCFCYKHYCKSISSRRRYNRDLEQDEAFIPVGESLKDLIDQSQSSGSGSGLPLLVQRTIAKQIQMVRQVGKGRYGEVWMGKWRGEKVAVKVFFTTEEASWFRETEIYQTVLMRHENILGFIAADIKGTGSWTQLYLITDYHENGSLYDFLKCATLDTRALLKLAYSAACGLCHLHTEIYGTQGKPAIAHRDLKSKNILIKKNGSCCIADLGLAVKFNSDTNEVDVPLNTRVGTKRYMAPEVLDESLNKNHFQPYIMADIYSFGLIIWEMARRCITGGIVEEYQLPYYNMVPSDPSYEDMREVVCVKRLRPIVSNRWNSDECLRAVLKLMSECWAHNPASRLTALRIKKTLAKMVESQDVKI
Activity calls are given as the source filed them.

Exercise: Consider the compound `CO[C@H]1C[C@@H]2CC[C@@H](C)[C@@](O)(O2)C(=O)C(=O)N2CCCC[C@H]2C(=O)O[C@H]([C@H](C)C[C@@H]2CC[C@@H](OC(=O)C(C)(CO)CO)[C@H](OC)C2)CC(=O)[C@H](C)/C=C(\C)[C@@H](O)[C@@H](OC)C(=O)[C@H](C)C[C@H](C)/C=C/C=C/C=C/1C` and give its measured Kd.
Solution: > 30 µM (inactive)

Exercise: Entry `CCCCCCCCCCCCCCCCCCOP(=O)([O-])OC1CC[N+](C)(C)CC1` please
Solution: > 30 µM (inactive)

Exercise: Entry `C[C@@H](N)c1ccc(C(=O)Nc2ccnc3[nH]ccc23)cc1` please
Solution: 0.34 µM

----------
biological target: cAMP-dependent protein kinase catalytic subunit beta (Homo sapiens, UniProt P22694); further: in the data inactive means no Kd found up to 30 µM
The source made the active and inactive calls.
Pick from active, inactive when you respond.

Exercise: Assay result, entry `NC(=O)Nc1cc(-c2cccc(F)c2)sc1C(=O)N[C@H]1CCCNC1` — outcome?
Solution: inactive

Exercise: Entry `O=C(Nc1c[nH]nc1-c1nc2cc(CN3CCOCC3)ccc2[nH]1)NC1CC1` please
Solution: active

Exercise: Entry `COc1ccc(S(=O)(=O)N(C(C)=O)c2ccccc2/C=C/c2cc[n+]([O-])cc2)cc1` please
Solution: inactive

Exercise: Entry `CCNC(=O)C#Cc1ccc2c(c1)NC(=O)/C2=C(\Nc1ccc(CN(C)C)cc1)c1ccccc1` please
Solution: inactive

Exercise: Entry `CCn1cc(-c2ccnc3[nH]c(-c4cccc(CN(C)C)c4)cc23)c(-c2ccc(NC(=O)N(C)C)cc2)n1` please
Solution: inactive

Exercise: Entry `COc1cc([C@@H]2c3cc4c(cc3[C@H](O)[C@H]3COC(=O)[C@@H]23)OCO4)cc(OC)c1OC` please
Solution: inactive

Exercise: Entry `CO[C@H]1C[C@@H]2CC[C@@H](C)[C@@](O)(O2)C(=O)C(=O)N2CCCC[C@H]2C(=O)O[C@H]([C@H](C)C[C@@H]2CC[C@@H](OP(C)(C)=O)[C@H](OC)C2)CC(=O)[C@H](C)/C=C(\C)[C@@H](O)[C@@H](OC)C(=O)[C@H](C)C[C@H](C)/C=C/C=C/C=C/1C` please
Solution: inactive

Exercise: Entry `COc1cc(Nc2ncc3c(n2)-c2ccc(Cl)cc2C(c2c(F)cccc2OC)=NC3)ccc1C(=O)O` please
Solution: inactive

Exercise: Entry `CNC(=O)c1cccc2cc(Oc3ccnc4cc(OCC5(N)CC5)c(OC)cc34)ccc12` please
Solution: inactive

Exercise: Entry `COc1ncc(-c2ccc3nccc(-c4ccnnc4)c3c2)cc1NS(=O)(=O)c1ccc(F)cc1F` please
Solution: inactive

Exercise: Entry `Cc1cccc(-c2nn3c(c2-c2ccnc4ccc(C(N)=O)cc24)CCC3)n1` please
Solution: inactive

Exercise: Entry `C[C@@H](NC(=O)c1ncnc(N)c1Cl)c1ncc(C(=O)Nc2cc(C(F)(F)F)c(Cl)cn2)s1` please
Solution: inactive

Exercise: Entry `Cn1cc(-c2cnn3c(N)c(Br)c([C@@H]4CCCNC4)nc23)cn1` please
Solution: inactive

Exercise: Entry `Nc1ncnc2c1c(-c1cccc(OCc3ccccc3)c1)cn2[C@H]1C[C@@H](CN2CCC2)C1` please
Solution: inactive

Exercise: Entry `NC1(c2ccc(-c3nc4ccn5c(=O)[nH]nc5c4cc3-c3ccccc3)cc2)CCC1` please
Solution: inactive
